target: Rho kinase 1 (Homo sapiens (Human)); assay: biochemical; conditions: Rho kinase 1 Ki, isolated enzyme, 10 μM ATP, 60 minutes at room temperature
Sequence (Q13464 17-535): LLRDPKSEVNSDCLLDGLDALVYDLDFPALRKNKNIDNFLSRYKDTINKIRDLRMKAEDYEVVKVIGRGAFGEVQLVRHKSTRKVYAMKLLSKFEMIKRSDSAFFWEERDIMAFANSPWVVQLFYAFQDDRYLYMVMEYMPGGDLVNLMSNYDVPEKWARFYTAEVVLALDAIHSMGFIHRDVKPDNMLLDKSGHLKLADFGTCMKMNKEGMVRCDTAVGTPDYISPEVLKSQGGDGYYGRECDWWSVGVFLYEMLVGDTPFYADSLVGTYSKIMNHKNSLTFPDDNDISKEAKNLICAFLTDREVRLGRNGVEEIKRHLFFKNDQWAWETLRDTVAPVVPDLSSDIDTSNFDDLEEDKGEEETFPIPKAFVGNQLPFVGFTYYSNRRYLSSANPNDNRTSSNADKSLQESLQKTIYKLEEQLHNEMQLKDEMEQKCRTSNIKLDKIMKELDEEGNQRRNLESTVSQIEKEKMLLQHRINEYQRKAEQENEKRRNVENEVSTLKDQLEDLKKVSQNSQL
Readout label: pKi
FYI, pKi means -log10 of a concentration in mol per litre.

- Molecule: "c1ccc(CN2C3CCC2CC(Nc2ccc4[nH]ncc4c2)C3)cc1 (single isomer, unassigned) [Compound 1.1.01]"
  Tested on: "Rho kinase 1 (Homo sapiens (Human))"
  Observed value: 7.14
- Molecule: "c1ccc(CN2C3CCC2CC(Nc2ccc4[nH]ncc4c2)C3)cc1 (single isomer, unassigned) [Compound 2.1.01]"
  Tested on: "Rho kinase 1 (Homo sapiens (Human))"
  Observed value: 6.09
- Molecule: "Cc1ccc(CN2C3CCC2CC(Nc2ccc4[nH]ncc4c2)C3)cc1 (stereo not shown)"
  Tested on: "Rho kinase 1 (Homo sapiens (Human))"
  Observed value: 7.04

Consider the additional molecule presented here.
Entry under review: Cc1ccc(CN2C3CCC2CC(Nc2ccc4[nH]ncc4c2)C3)cc1OCCO (stereo not shown) . Reported pKi? 7.46

----------
Reported values of pKi for individual entries
target: UniProt O75116; assay: Rho Kinase Inhibition Assay (IMAP fluorescence polarization), Rho kinase 2; format: biochemical; conditions: Rho kinase 2 Ki, isolated enzyme, 10 μM ATP, 60 minutes at room temperature
Sequence (O75116 11-552): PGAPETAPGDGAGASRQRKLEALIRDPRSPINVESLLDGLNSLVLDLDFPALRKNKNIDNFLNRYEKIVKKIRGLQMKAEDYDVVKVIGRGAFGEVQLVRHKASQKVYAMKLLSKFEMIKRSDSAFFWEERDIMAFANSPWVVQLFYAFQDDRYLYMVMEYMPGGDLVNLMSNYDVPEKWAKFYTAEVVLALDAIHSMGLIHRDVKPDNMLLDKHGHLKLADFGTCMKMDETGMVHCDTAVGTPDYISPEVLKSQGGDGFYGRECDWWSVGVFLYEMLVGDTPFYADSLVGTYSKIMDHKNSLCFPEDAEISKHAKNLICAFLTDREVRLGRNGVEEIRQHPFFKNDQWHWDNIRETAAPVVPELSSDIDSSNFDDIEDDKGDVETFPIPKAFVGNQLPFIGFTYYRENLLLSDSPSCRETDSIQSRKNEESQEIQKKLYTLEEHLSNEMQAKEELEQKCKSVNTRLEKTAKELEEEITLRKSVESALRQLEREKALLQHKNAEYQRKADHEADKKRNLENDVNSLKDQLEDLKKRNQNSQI
Notebook: values listed as pKi are -log10 of the concentration (mol/L).

- Molecule: "c1ccc(CN2C3CCC2CC(Nc2ccc4[nH]ncc4c2)C3)cc1 (single isomer, unassigned) [Compound 2.1.01]"
  Readout label: "pKi"
  Observed value: 6.66
- Molecule: "c1ccc(CN2C3CCC2CC(Nc2ccc4[nH]ncc4c2)C3)cc1 (single isomer, unassigned) [Compound 1.1.01]"
  Readout label: "pKi"
  Observed value: 7.54
- Molecule: "OCCOc1cccc(CN2C3CCC2CC(Nc2ccc4[nH]ncc4c2)C3)c1 (centres unmarked)"
  Readout label: "pKi"
  Observed value: 7.68

Please give the measured pKi for this molecule: Cc1ccc(CN2C3CCC2CC(Nc2ccc4[nH]ncc4c2)C3)cc1 (centres unmarked) 7.70

Now this one: Cc1ccc(CN2C3CCC2CC(Nc2ccc4[nH]ncc4c2)C3)cc1OCCO (centres unmarked) 8.00
